Target: human apical sodium-dependent transporter (SLC10A2, ASBT) (Homo sapiens)
Sequence (Q12908 whole entry): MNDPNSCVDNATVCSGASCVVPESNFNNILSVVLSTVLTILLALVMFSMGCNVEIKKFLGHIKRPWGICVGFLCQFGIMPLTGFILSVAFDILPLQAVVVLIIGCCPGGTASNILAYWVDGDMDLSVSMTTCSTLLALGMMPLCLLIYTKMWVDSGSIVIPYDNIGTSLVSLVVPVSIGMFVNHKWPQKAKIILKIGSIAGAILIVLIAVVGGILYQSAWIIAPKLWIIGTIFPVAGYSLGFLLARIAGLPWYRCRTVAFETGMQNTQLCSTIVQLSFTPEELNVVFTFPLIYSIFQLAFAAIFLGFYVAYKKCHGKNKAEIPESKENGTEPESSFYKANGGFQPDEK
Assay: ASBT cis-inhibition of taurocholate uptake in ASBT-MDCK cells
Conditions: Ki, inhibitor concentration range 0-200 μM; mean±S.E.
Structures can show the parent of a compound that is named as a salt.
Returns the class for an entry based on its Ki. Class ranges: lowest = under 100 µM, middle = from 100 µM up to 200 µM, highest = 200 µM and over

CCCCOc1cc(C(=O)NCCN(CC)CC)c2ccccc2n1 [Dibucaine hydrochloride, dibucaine hydrochloride] :: lowest

IN: Input O=C(O)C[C@H](O)C[C@H](O)/C=C/c1c(C2CC2)nc2ccccc2c1-c1ccc(F)cc1 ; output its category
OUT: lowest

IN: Exam item: assign NS(=O)(=O)c1cc2c(cc1C(F)(F)F)NC(Cc1ccccc1)NS2(=O)=O (stereo not shown) [Bendroflumethiazide, bendroflumethiazide] to the correct category.
OUT: middle

IN: State the band of CCCCNc1cc(C(=O)O)cc(S(N)(=O)=O)c1Oc1ccccc1 [Bumetanide, bumetanide]
OUT: highest
